System: Saccharomyces cerevisiae
MEASUREMENT NOTES: Toxicity against Saccharomyces cerevisiae
Type: organism-based
CONDITION DETAILS: in vivo
ASSAY ENDPOINT: Activity

- CCNC(=O)N1C[C@H](C)C[C@@](C)(O)[C@H](O[C@@H]2O[C@H](C)C[C@H](N(C)C)[C@H]2O)[C@@H](C)[C@H](O)[C@@H](C)C(=O)O[C@H](CC)[C@@](C)(O)[C@H](O)[C@H]1C: Non-toxic
- CC[C@H]1OC(=O)[C@H](C)[C@@H](O[C@H]2C[C@@](C)(OC)[C@@H](O)[C@H](C)O2)[C@H](C)[C@@H](O[C@@H]2O[C@H](C)C[C@H](N(C)C)[C@H]2O)[C@](C)(OC)C[C@@H](C)CN[C@H](C)[C@@H](O)[C@]1(C)O: Non-toxic

Reference for the values: ChEMBL document CHEMBL1143064
